List of Octet binding response values.
# Assayed system: T1, Processed stabilized hMPV PreF trimer (115BV) (human metapneumovirus, strain B2)
# T1 construct: also called Processed hMPV PreF trimer; processed PreF
# Experiment: BLI, mAb on anti-human Fc sensor
Answer in nm, number only, no unit symbol.

M2B06 (antibody, V domains shown, IgG) VH: QVQLQESGPRLVKPSGTLSLTCAVSGASITSSHWWTWVRQPPGKGLEWIGRIFHSGSTNYNPSLKSRVTISLDKSRNQFSLTLTSVTAADTAVYYCARDDQIVVMPAGFDRWGQGALVIVSS VL: DIQMTQSPSSLSASVGDRVTITCRASQTISSYLNWYQQTPGKAPNLLIYGASRLQGGVPSRFSGSGSGTDFTLTISSLQPEDFAIYFCQQSKSIPYTFGQGTRLEIK = 0.401

Next item in the queue.
Task item: Please give the measured Octet binding response for this binder: M3E09 (antibody, V domains shown, IgG) VH: EVQLVESGGGVVRPGGSLRLSCAASGFRFDDYAMNWVRQAPGKGLEWVSGINWIGGTTKYADSVKGRFTISRDNTKNSLYLQMNSLRAEDTALYYCARGVGYYYYYMDVWGRGTTVTVSS VL: EIVLTQSPGTLSLSPGERATLSCRATQSVSSNYLAWYQQKPGQAPRLLIYDASSRAIGIPDRFSGSGSGTDFTLTISRLESEDFAVYYCQQYGSSPETFGQGTKVEIK
Reply: 0.0948
